src = patent US20040043420A1

β-galactosidase activity (yeast two-hybrid), CPA by entry:
Target: T1, Gal4 transcriptional activation domain (AD) fused in frame with AR (yeast, UniProt P10275 1-920, limits assumed); further: unit not given here
T1 sequence (looked up): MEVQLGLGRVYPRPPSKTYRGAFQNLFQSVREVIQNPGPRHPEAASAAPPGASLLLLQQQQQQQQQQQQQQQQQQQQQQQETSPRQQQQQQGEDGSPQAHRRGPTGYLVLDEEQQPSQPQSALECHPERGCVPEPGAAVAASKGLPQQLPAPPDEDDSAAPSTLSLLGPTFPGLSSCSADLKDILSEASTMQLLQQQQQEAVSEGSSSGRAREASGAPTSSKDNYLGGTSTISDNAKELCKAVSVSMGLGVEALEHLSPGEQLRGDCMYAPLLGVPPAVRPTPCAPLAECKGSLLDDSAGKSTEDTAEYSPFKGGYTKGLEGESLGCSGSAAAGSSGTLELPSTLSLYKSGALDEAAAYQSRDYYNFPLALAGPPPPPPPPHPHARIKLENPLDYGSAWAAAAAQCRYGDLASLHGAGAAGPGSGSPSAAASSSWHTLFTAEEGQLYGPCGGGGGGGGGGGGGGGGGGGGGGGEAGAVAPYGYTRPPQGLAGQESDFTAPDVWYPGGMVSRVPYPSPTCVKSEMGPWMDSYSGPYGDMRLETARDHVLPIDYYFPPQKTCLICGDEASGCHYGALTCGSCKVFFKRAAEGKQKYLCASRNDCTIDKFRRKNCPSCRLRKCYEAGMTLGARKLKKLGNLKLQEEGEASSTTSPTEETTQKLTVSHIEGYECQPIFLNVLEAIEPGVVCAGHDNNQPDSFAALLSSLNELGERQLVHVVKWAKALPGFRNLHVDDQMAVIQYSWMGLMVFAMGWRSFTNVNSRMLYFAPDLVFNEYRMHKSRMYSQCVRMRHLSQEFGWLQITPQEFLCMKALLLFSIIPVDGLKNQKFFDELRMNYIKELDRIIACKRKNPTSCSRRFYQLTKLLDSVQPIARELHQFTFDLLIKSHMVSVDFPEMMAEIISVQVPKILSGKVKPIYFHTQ
Experiment: cell-based or functional assay
Give the figure only, with no unit attached.

// below: answered binders
| binder | measured-value |
| --- | --- |
| B22F6 (peptide) MKLLSSIEQACDICRLKKLKCSKEKPKCAKCLKNNWECRYSPKTKRSPLTRAHLTEVESRLERLEQLFLLIFPREDLDMILKMDSLQDIKALLTGLFVQDNVNKDAVTDRLASVETDMPLTLRQHRISATSSSEESSNKGQRQLTVSEFLSGLEMEVVLWHYGRLDLQPS | 1.23 |
| M2H3 (peptide) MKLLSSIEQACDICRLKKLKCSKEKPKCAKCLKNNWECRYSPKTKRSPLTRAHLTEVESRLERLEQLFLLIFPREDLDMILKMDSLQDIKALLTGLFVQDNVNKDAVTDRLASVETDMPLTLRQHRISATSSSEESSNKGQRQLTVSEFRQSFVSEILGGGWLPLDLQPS | 8.59 |

Turning now to a further binder:
Query :: Return reported β-galactosidase activity (yeast two-hybrid), CPA; argument: M7B1 (peptide) MKLLSSIEQACDICRLKKLKCSKEKPKCAKCLKNNWECRYSPKTKRSPLTRAHLTEVESRLERLEQLFLLIFPREDLDMILKMDSLQDIKALLTGLFVQDNVNKDAVTDRLASVETDMPLTLRQHRISATSSSEESSNKGQRQLTVSEFVGWFTGMAACSYAPDLDLQPS
Result :: 1.69
